Molecular target: T1, E. coli proline tRNA synthetase (E. coli, UniProt P16659 1-572)
T1 construct: also called ProRS; E. coli ProRS
T1 sequence: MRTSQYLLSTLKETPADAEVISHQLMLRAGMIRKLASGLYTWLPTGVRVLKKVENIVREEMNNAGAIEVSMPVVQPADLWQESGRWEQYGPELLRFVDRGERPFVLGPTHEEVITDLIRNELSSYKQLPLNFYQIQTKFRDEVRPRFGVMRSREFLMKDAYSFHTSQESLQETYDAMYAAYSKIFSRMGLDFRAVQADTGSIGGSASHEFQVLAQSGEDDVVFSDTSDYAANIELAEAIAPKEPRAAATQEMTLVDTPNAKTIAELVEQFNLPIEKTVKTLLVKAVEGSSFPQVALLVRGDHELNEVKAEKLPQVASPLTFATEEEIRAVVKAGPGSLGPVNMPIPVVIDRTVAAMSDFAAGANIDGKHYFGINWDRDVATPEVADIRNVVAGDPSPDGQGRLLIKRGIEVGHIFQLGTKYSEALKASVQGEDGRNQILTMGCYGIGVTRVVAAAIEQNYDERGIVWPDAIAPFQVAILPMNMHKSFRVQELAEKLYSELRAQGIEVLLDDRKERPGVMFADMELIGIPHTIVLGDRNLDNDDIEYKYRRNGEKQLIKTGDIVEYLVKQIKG
Experiment: tRNA charging assay (enzyme inhibition), competitive in respect to proline
pKi: −log10 of the molar value.
Metric name: pKi

-- ask Recorded pKi of VCAIWPDLDGC (also called non-biotinylated ProRS surrogate ligand) [non-biotinylated ProRS peptide] , please.
-- reply < 3.30
